assay-name: yeast display, Sf9 membrane polyspecificity reagent, FACS + sequencing; frameworks hold sequencing errors
measured-quantity: polyreactivity (PSR sort gate)

- QVQLVEACGGLVQAGGSLRLICAASGNIFAYNAMGWYRQAPGKERELVAAISVIGGTTYYADSVKGRFTISRDNAKNTVYLQMNSLKPEDTAVYSCSVDSVQYGGGYERLHELYYWGQGTQVTVSS: low polyreactivity
- QVQHVESGGGLVQAGGRLRLSCAASGIIFQYYAMGSYRQAPGKERESVAGITYPGGSTYYADSVKGRFTISRDNAKNTVYLPKNSLQPEDTAVYFCNAVGVSARYWRQLPSYRYDYWGQGTQVTVSS: low polyreactivity
- QVQLVESGGGLVQAGGSLRLSCAASGLTIITNAMGWYRQAPGKERELVAAISGTGGSTYYADSVKGRFTISRDNAKNTVYLQMNSLKPEDTAVYYCAAAPYTFWVGDSWGQGTQVTVSS: high polyreactivity
- QVQLVESGGGLVQAGGSLRLSCAASGSIFVPYAMGWYRQAPGKERELVASINWNGSSTYADSVKGRFTISRDNAKNSVYLQMNSLKPEDTAVYYCNADYNRNSVQFSLYDYWGQGTQVTVST: low polyreactivity
- QVQLVESGGGLVQAGGSLRLSCASSGSIINRYAMGGYRQAPGKERELVAAITQSGGRTYYADSVKGRFTISRDNAKNTVYLQMNSLKPEDTAVYYCNAVRWYLYDYWGQGTQVTVSS: high polyreactivity
- QVQLVESGGGLVQAGGSLRLSCAASGRTFKDYAMGWYRQAPGKERELVAAISWSGGDTYYADSVKGRFTISRDNAKNTVYLQMNRLKPEDTAVYYCNADPSGVFFYSLEFDYWGQGTQVTVSS: low polyreactivity
- QVQLVESGGGLVQAGGSLRLSCAASGSTLDRYVMGWYRQAPGKERELVAAISRNGGSTYYADSVKGRFTISRDNAKNTVYLQMNSLKPEDTAVYYCARYAGFPYTQGDYWGQGTQVTVSS: high polyreactivity
- QVQLVESGGGLVQAGGSLRLSCAASGITLEVYAMGWYRQAPGKERELVAAITDSGGRTYYADSVKGRFTISRDNAKNTVYLQMNSLKPEDTAVYYCAADDTRVYGAGEYWGQGTQVTVSS: low polyreactivity
- QVQLVESGGGLVQAGGSLRLSCAASGSTFYGYAMGWYRQAPGKERELVAVISRSGGSTYYADSVKGRFTISRDNAKNTVYLQMNILKPEDTAVYYCNARWSFSYTVWVDSYWGLDDYWGQGTQVTVSS: high polyreactivity
- QVQLVESGGGLVQAGGSLRLSCAASGSIFDRYDMGWYRQAPGKERELVAVINWSGGTTYYADSVKGRFTISRDNAKNTVYLQMNSLKPEDTAVYYCAADGSKPYAMDYWGQGTQVTVSS: high polyreactivity
- QVQLVESGGGLVQAGGSLRLSCAASGNIFHVNAMGWYRQAPGKERELVAGITWSGGSTYYADSVKGRFTISRDNAKNTVYLQMNSLKPEDTAVYYCAATGWYFGYGRYGYWVQGTQVTVSS: high polyreactivity
- QVQLVESGVGLVQAGGSVRLSCAASGSIFSINAMGWYRQAPGKERELVAAISASGGSTYYADSVKGRFTISRDNAKNTVYLQMNSLKPEDTAVYYCAVYTHDRFSRYDQGDYWGQATQVTVSS: low polyreactivity
- QVQLVESGGGLVQAGGSLRLSCAASGSIFLRYDMGWYRQAPGKERELVAAISRGGSTYYADSVKGRFTISRDNAKNTVYLQLNSLKPEDTAVYSCAARRFGREHGYWGQGTQVTVSS: high polyreactivity
- QVQLVESGGGLVQAGGSLRLSCAASGFIFRYNAMGWYRQAPGKERELVARISSGGSTNYADSVKGRFTISRDNAKNTVYLQMNSLKPEDTAVYYCAVKQYWYIWSGYGYDYWGQGTQVTVSS: high polyreactivity
- QVQLVESGGGLVQAGGSLRISCAASGRIFYGNAMGWYRQAPGKERELVAAIRRSGGSTYYADSVKGRFTISRDNAKNTVYLQMNSLKPEDTAVYYCNVDSGEFDYVWVYTYDYWGQGTQVTVSS: low polyreactivity
- QVQLVESGGGLVQAGGSLRLSCAASGRTFGIYAMGWYRQATGKERELVAGITWTGGSTYYADSVKGRFTISRDNAKNTVYLQMNSLKPEDTAVYYCAADFYVLQFYGLDYGYWGQGTQVTVSS: low polyreactivity
- QVQLVESGGGLVQAGGSLRLSCAASGFTFVSYAMGWYRQAPGKERELVAVIDNSDGDTYYADSVKGRFTISRDNAKNTVYLQMNSLKPEDTAVYYCAADAVIEWTDWYSAWWYYYWGQGTQVTVSS: low polyreactivity
- QVQLVESGGCLVQAGGSLRLSCSASGRIFNTYAMGWYRQAPGKERDLVARISSGGTTYYADSVKGRFTISRDNAKNTVYLQMNSLKPEDTAVYYCNVRAVTPTRSRPFRYDYWGQGTQVTVSS: high polyreactivity
- QVQLQESGGGLVQARGSLRLICAASGNISVTGFMGWYRQAPCKERELVASIGIGGTTYYADSVKGRFSISRDNAKNTVYLQMNSLKPEDTAVYYCAARYLYYAYSYWGQGTQVTVIS: low polyreactivity
- QVQLVESGGGLVQAGGSLRLRCAASGRYAMGWYRQAPGKEREFVARITWSGGSTYYADSVKGRFTISRDNAKNTVYLQMNSLNPEDTAVYYCAKVSRRTDYYYWGQGTQVTVSS: high polyreactivity
- QVQLVESGGGLVQAGGSLRISCAPSGIIFTDYAMGWYRQAPGKERELVAAISSGGGSTYYADSVKGRFTISRDNAKNTVYLQMNSLKPEDTAVYYCAAEGYLISGAGDYLYDYYWGQGTQVTVSS: high polyreactivity
